The measured values listed here are drawn from paper PMC6302548.

- SYSTEM TESTED: MCT1 (monocarboxylate transporter 1) (Homo sapiens)
- Sequence (P53985 1-500): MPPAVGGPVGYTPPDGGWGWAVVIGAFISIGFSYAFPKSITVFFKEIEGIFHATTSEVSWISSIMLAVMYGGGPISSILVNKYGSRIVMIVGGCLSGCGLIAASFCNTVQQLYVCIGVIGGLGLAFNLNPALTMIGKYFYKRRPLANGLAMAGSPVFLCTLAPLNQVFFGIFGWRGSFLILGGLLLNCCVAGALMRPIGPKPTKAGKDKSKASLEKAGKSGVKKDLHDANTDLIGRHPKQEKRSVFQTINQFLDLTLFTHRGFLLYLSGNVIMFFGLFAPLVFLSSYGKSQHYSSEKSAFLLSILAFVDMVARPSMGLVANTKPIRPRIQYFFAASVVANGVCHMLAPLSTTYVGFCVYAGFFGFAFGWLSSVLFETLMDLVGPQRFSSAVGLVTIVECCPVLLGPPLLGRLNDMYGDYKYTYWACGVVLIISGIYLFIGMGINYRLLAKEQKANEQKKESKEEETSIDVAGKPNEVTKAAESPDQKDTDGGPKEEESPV
- Sequence (P35613 22-385 partner): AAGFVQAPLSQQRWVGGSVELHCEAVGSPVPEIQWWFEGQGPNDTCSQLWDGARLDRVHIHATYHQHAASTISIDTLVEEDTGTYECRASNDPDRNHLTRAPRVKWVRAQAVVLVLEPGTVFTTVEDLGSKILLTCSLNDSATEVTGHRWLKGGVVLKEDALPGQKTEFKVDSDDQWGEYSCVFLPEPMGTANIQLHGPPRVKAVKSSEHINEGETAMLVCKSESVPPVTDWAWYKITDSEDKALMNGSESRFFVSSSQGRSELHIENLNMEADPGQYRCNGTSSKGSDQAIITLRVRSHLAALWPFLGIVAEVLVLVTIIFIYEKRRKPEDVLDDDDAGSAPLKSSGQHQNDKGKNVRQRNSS
- EXPERIMENTAL PROTOCOL: intracellular lactate accumulation and 3H-lactate efflux in HAP1 MCT4-KO cells; DARTS in HCT116 membrane extracts
METRIC: IC50

Query (molecule): CCOC(=O)Oc1c(OC)cc(C(=O)O[C@@H]2C[C@@H]3CN4CCc5c([nH]c6cc(OC)ccc56)[C@H]4C[C@@H]3[C@H](C(=O)OC)[C@H]2OC)cc1OC [Syrosingopine] ; field requested: IC50
~2500 nM
